Test: Phase 1 first-in-human study, plasma pharmacokinetics
Format: in vivo
Settings: both sexes, human, plasma, po, 36 mg, 36 mg QD oral solution, fed, Day 1
measured property: Cmax
Please state the value followed by its unit.

[Q] Quickly give me recorded Cmax for C=CC(=O)N[C@H]1CCC[C@H]1NC(=O)c1sc2nccc3c2c1NC(=O)N3c1cnc(CC(C)C)cc1C (atropisomer, axis not shown) [compound of Formula (III)]
[A] 193 ng/mL

====

Test: Phase 1 first-in-human study, plasma pharmacokinetics
Type: in vivo
Conditions: female, human, plasma, po, 36 mg, single 36 mg oral solution, female fasted
measured property: AUC(0-inf) (ng·h/mL)
Respond numerically; units are ng·h/mL and should not be typed.

[Q] For the compound C=CC(=O)N[C@H]1CCC[C@H]1NC(=O)c1sc2nccc3c2c1NC(=O)N3c1cnc(CC(C)C)cc1C (atropisomer, axis not shown) [compound of Formula (III)] , give its measured AUC(0-inf) value.
[A] 22.7
